- target entity: α1A adrenergic receptor (Homo sapiens)
- Sequence (P35348 whole entry): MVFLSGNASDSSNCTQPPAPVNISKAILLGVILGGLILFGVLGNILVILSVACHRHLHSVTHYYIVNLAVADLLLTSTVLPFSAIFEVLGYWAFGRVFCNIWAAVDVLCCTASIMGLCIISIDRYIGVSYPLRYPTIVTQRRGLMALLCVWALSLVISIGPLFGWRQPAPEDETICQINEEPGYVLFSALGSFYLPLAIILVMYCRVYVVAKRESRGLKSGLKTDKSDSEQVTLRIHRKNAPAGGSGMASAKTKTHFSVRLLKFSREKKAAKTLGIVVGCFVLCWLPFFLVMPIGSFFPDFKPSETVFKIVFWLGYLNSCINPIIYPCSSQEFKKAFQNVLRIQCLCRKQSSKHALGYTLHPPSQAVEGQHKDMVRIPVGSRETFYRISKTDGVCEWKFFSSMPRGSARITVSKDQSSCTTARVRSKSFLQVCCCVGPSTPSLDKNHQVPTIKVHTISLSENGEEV
- protocol description: SelectScreen cell-based GPCR profiling, α1A agonist assay
pEC50: −log10 of the molar value.
readout kind: pEC50

What value of measured pEC50 is listed for CC(Oc1ccccc1C1CCCC1)C1=NCCN1 (stereo not shown) [Compound III] ? > 9.92

---

- target entity: β2 adrenergic receptor (Homo sapiens)
- Sequence (P07550 whole entry): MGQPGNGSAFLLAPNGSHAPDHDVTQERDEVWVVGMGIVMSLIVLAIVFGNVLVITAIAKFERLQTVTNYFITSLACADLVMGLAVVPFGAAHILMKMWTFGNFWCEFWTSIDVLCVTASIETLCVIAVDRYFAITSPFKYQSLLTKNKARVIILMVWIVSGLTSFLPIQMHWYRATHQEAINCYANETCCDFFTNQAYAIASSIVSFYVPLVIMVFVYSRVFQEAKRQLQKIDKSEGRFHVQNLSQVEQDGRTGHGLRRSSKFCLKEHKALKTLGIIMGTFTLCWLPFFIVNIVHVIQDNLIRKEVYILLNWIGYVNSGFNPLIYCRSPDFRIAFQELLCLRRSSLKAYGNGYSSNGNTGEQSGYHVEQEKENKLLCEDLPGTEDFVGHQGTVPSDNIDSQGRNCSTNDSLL
- protocol description: SelectScreen cell-based GPCR profiling, β2 agonist assay
- experimental setup: 5 hours incubation, fluorescence read
pEC50: −log10 of the molar value.
Listing of recorded pEC50 by entry.

>  <molecule>
CC(Oc1ccccc1C1CCCC1)C1=NCCN1 (stereo not drawn)

>  <pEC50>
< 5.20

$$$$
>  <molecule>
CC(Oc1ccccc1/C=N/O)C1=NCCN1 (stereo not drawn)

>  <pEC50>
< 4.20

$$$$

What value of measured pEC50 is listed for CC(Oc1ccccc1-c1cccnc1)C1=NCCN1 (stereo not drawn) ? < 4.60

---

- target entity: α2A adrenergic receptor (Homo sapiens, UniProt P08913)
- Sequence (P08913 whole entry): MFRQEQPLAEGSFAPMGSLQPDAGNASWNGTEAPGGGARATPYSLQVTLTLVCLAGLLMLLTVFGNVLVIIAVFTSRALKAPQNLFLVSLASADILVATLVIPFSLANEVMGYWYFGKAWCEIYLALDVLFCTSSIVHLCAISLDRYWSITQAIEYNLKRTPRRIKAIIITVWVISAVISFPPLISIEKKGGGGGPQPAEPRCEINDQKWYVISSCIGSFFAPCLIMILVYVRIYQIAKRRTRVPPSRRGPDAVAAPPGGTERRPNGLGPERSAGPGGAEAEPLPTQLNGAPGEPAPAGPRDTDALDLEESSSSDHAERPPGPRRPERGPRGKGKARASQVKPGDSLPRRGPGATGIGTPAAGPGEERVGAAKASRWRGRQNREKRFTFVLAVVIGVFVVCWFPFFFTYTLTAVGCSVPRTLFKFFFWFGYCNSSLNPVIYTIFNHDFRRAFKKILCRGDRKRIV
- protocol description: SelectScreen cell-based GPCR profiling, α2A agonist assay
- experimental setup: 5 hours incubation, fluorescence read
readout kind: pEC50
Reminder that pEC50 is minus the log10 of a molar concentration.

>  <compound>
CC(Oc1ccccc1/C=N/O)C1=NCCN1 (stereo not drawn)

>  <pEC50>
6.56

$$$$

What value of measured pEC50 is listed for CC(Oc1ccccc1C1CCCC1)C1=NCCN1 (stereo not drawn) ? 7.73

Provenance of the data: patent US20160122305A1
